Parameter: Ratio OD(Variant)/OD(WT). Scope: all listed entries.
- target-or-test-system: HRgpA-6H (Porphyromonas gingivalis) (UniProt P28784)
- assay-name: ELISA, coated HRgpA-6H
// return a plain number; no unit text

Completed entries (count: 2):
1. KB001 mouse Fab VL T24Q (Fab, V domains shown) VH: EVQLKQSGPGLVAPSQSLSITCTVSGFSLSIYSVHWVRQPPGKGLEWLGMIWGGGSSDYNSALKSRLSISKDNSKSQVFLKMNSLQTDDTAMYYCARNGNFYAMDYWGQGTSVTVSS VL: QIVLTQSPAIMSASLGERVTMTCQASSSVSSSFLHWYQQKPGSSPQLWIYSTSNLASGVPARFSGSGSGTSYSLTISSMEAEDAATYYCHQYHHSPYIYTFGGGTKLEIK :: 0.995
2. KB001 mouse Fab VL N54W (Fab, V domains shown) VH: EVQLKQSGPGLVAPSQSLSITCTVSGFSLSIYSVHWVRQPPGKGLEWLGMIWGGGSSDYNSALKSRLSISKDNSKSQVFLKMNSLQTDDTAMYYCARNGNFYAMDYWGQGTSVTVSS VL: QIVLTQSPAIMSASLGERVTMTCTASSSVSSSFLHWYQQKPGSSPQLWIYSTSWLASGVPARFSGSGSGTSYSLTISSMEAEDAATYYCHQYHHSPYIYTFGGGTKLEIK :: 0.825

Next binder, Ratio OD(Variant)/OD(WT) to be filled in.
q: // returns reported Ratio OD(Variant)/OD(WT) for input KB001 mouse Fab VL V29L (Fab, V domains shown) VH: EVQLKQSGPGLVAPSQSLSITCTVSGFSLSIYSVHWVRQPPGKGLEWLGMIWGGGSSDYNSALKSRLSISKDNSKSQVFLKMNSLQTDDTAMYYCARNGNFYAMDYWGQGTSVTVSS VL: QIVLTQSPAIMSASLGERVTMTCTASSSLSSSFLHWYQQKPGSSPQLWIYSTSNLASGVPARFSGSGSGTSYSLTISSMEAEDAATYYCHQYHHSPYIYTFGGGTKLEIK
a: 0.871
